Just for reference, patent US11524938B2 is where these values come from.

target_of_assay: human P2X4 (Homo sapiens)
procedure_summary: Human P2X4 HEK Cell FLIPR Assay
Assay type: cell-based
experimental_setup: HEK293, HEK293 cells, agonist Bz-ATP at EC80; percentage of maximal inhibition; read-out: Human P2X4 HEK Cells (FLIPR Assay) avg Efficacy [%]
attribute_measured: Emax (%)
# output: bare number, implied unit %

smiles_string	target_of_assay	Emax, %
Cc1cccc(CC(=O)Nc2ccc(-n3cc(F)cn3)c(S(N)(=O)=O)c2)c1	human P2X4 (Homo sapiens)	83

Field request: Emax | item: Cc1cc(F)c(Br)cc1CC(=O)Nc1ccc(-n2cc(C(F)(F)F)cn2)c(S(N)(=O)=O)c1
96

Likewise for NS(=O)(=O)c1cc(NC(=O)Cc2ccccc2Cl)cnc1-c1cncc(C(F)(F)F)c1 ?
49

Likewise for NS(=O)(=O)c1cc(NC(=O)Cc2ccncc2Cl)ccc1-n1cc(Br)cn1 ?
96

Likewise for N#Cc1cnn(-c2ncc(NC(=O)Cc3ccccc3Cl)cc2S(N)(=O)=O)c1 ?
93

Likewise for NS(=O)(=O)c1cc(NC(=O)Cc2c(F)cccc2Cl)ccc1-n1cc(Cl)cn1 ?
82

Likewise for NS(=O)(=O)c1cc(NC(=O)Cc2cc(F)c(F)cc2Cl)ccc1-n1cc(C(F)(F)F)cn1 ?
71

Likewise for NS(=O)(=O)c1cc(NC(=O)Cc2ccccc2C(F)(F)F)ccc1-c1cncc(C(F)(F)F)c1 ?
65

* * *

A collection of compounds and their measured Emax
target_of_assay: human P2X4 (Homo sapiens, UniProt Q99571)
Sequence (Q99571 1-388): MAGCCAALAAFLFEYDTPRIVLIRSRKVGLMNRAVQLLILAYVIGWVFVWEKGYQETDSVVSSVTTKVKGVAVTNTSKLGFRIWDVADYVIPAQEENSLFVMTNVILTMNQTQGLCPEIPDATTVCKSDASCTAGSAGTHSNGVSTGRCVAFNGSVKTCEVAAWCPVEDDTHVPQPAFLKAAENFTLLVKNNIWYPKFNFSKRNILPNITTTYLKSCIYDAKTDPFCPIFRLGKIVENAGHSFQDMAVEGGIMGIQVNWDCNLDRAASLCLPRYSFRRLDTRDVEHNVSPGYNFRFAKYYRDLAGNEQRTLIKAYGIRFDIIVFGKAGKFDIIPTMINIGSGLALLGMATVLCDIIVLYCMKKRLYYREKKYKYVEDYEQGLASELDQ
procedure_summary: Human P2X4 HEK Cell FLIPR Assay
Assay type: cell-based
experimental_setup: HEK293, HEK293 cells, agonist Bz-ATP at EC80; percentage of maximal inhibition; read-out: Human P2X4 HEK Cells (FLIPR Assay) avg Efficacy [%]
# output: bare number, implied unit %

Field request: Emax | item: NS(=O)(=O)c1cc(NC(=O)Cc2ccccc2Cl)ccc1-c1cnc(OCC(F)(F)F)nc1
94

* * *

A collection of compounds and their measured pIC50
target_of_assay: human P2X4 (Homo sapiens, UniProt Q99571)
procedure_summary: Human P2X4 HEK Cell FLIPR Assay
experimental_setup: HEK293 cells, agonist Bz-ATP at EC80; individual values listed where some fall outside detection range
Recall that pIC50 is obtained by taking minus log10 of the concentration measured in molar.

compound	attribute_measured	measured_value
CCNc1ncc(-c2ccc(NC(=O)Cc3ccccc3Cl)cc2S(N)(=O)=O)cn1	pIC50	7.43
NS(=O)(=O)c1cc(NC(=O)Cc2ccccc2Cl)c(C(F)(F)F)cc1-c1cnn(C(F)F)c1	pIC50	5.04

Here is another compound to look at.
Field request: pIC50 | item: NS(=O)(=O)c1cc(NC(=O)Cc2ccccc2Cl)ccc1-c1cnn(CC2CCO2)c1 (stereo not shown)
7.22

* * *

target_of_assay: human P2X4 (Homo sapiens)
Sequence (Q99571 1-388): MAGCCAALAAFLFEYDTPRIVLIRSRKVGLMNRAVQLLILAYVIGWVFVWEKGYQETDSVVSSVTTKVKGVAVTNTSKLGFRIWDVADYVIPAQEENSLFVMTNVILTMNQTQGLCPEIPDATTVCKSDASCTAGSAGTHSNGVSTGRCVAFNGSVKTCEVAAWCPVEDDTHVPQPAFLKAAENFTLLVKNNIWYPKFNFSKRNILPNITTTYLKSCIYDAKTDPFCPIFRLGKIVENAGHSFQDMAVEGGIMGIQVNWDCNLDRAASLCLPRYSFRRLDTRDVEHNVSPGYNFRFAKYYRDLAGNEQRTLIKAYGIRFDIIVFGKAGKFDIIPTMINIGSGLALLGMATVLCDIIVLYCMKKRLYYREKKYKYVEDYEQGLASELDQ
procedure_summary: Human P2X4 HEK Cell FLIPR Assay
experimental_setup: HEK293 cells, agonist Bz-ATP at EC80; individual values listed where some fall outside detection range
A collection of compounds and their measured pIC50
Recall that pIC50 is obtained by taking minus log10 of the concentration measured in molar.

Solved entries:
compound	target_of_assay	pIC50
NS(=O)(=O)c1cc(NC(=O)Cc2ccccc2O)ccc1-n1cc(Cl)cn1 [Example 85]	human P2X4 (Homo sapiens)	7.38
NS(=O)(=O)c1cc(NC(=O)Cc2ccccc2Cl)ccc1-c1c[nH]c(C(=O)C(F)F)c1 [Example 528]	human P2X4 (Homo sapiens)	7.38
N#Cc1cnn(-c2ccc(NC(=O)Cc3c(F)cccc3Cl)cc2S(N)(=O)=O)c1 [Example 183]	human P2X4 (Homo sapiens)	7.41
COc1ccc(CC(=O)Nc2ccc(-n3cc(F)cn3)c(S(N)(=O)=O)c2)cc1 [Example 153]	human P2X4 (Homo sapiens)	6.74
NS(=O)(=O)c1cc(NC(=O)Cc2cc(F)ccc2Cl)ccc1-n1cc(C(F)(F)F)cn1 [Example 139]	human P2X4 (Homo sapiens)	6.97

Query pIC50 on human P2X4 (Homo sapiens) for Cc1ccc(Cl)c(CC(=O)Nc2ccc(-n3cc(Cl)cn3)c(S(N)(=O)=O)c2)c1 [Example 97]
6.70

Likewise for CC(C)c1ccccc1CC(=O)Nc1ccc(-n2cc(F)cn2)c(S(N)(=O)=O)c1 [Example 167] ?
7.19

Likewise for Cc1ncnn1-c1ccc(NC(=O)Cc2ccccc2Cl)cc1S(N)(=O)=O [Example 6] ?
5.97

* * *

target_of_assay: human P2X4 (Homo sapiens, UniProt Q99571)
procedure_summary: Human P2X4 HEK Cell FLIPR Assay
experimental_setup: HEK293 cells, agonist Bz-ATP at EC80; individual values listed where some fall outside detection range
attribute_measured: pIC50
Recall that pIC50 is obtained by taking minus log10 of the concentration measured in molar.

Field request: pIC50 | item: COCCn1cc(-c2ccc(NC(=O)Cc3ccccc3Cl)cc2S(N)(=O)=O)cn1 [Example 268]
8.30

Likewise for NS(=O)(=O)c1cc(NC(=O)Cc2cccc(Cl)c2)ccc1-n1cc(F)cn1 [Example 148] ?
6.88

Likewise for NS(=O)(=O)c1cc(NC(=O)Cc2ccccc2Cl)ccc1-c1ccc(Cl)cn1 [Example 319] ?
5.14

Likewise for N#Cc1cnn(-c2ccc(NC(=O)Cc3ccc(F)cc3Cl)cc2S(N)(=O)=O)c1 [Example 202] ?
7.32

* * *

target_of_assay: human P2X4 (Homo sapiens, UniProt Q99571)
procedure_summary: Human P2X4 HEK Cell FLIPR Assay
Assay type: cell-based
experimental_setup: HEK293, HEK293 cells, agonist Bz-ATP at EC80; percentage of maximal inhibition; read-out: Human P2X4 HEK Cells (FLIPR Assay) avg Efficacy [%]
attribute_measured: Emax (%)
# output: bare number, implied unit %

compound	Emax / %
CC(C)c1ncn(-c2ccc(NC(=O)Cc3ccccc3Cl)cc2S(N)(=O)=O)n1 [Example 233]	80

Field request: Emax | item: NS(=O)(=O)c1cc(NC(=O)Cc2ccccc2Cl)ccc1-c1nnc(C2CC2)o1 [Example 377]
80

Likewise for NS(=O)(=O)c1cc(NC(=O)Cc2ccccc2Cl)ccc1-n1cccc(Cl)c1=O [Example 4] ?
83

Likewise for Cc1cc(C#N)nn1-c1ccc(NC(=O)Cc2ccccc2Cl)cc1S(N)(=O)=O [Example 545] ?
100

* * *

target_of_assay: UniProt Q99571
procedure_summary: Human P2X4 HEK Cell FLIPR Assay
experimental_setup: HEK293 cells, agonist Bz-ATP at EC80; individual values listed where some fall outside detection range
pIC50: −log10 of the molar value.
Classify by measured pIC50: Satisfied if it is equal to or exceeds 7, Not satisfied if it is smaller.

The following molecules have reported results that may help.
smiles_string	category_label
COc1ccc(Cl)c(CC(=O)Nc2ccc(-n3cc(C(F)(F)F)cn3)c(S(N)(=O)=O)c2)c1	Not satisfied
NS(=O)(=O)c1cc(NC(=O)Cc2ccccc2Br)ccc1-n1cc(F)cn1	Satisfied
NS(=O)(=O)c1cc(NC(=O)Cc2ccc(F)cc2)ccc1-c1cnn(C(F)F)c1	Not satisfied

Dear colleague, could you confirm whether N#Cc1cnn(-c2cc(C(F)(F)F)c(NC(=O)Cc3cc(C(F)(F)F)ccc3Cl)cc2S(N)(=O)=O)c1 has pIC50 at or above 7?
Not satisfied

Likewise for NS(=O)(=O)c1cc(NC(=O)Cc2ccccc2Cl)ccc1-c1cscn1 ?
Satisfied
